- Assay name: qHTS of Nrf2 Activators: Hit Validation in Primary Assay; also: nearly all actives have a fitted effect of over 70% in size
- Recorded conditions: Nrf2/ARE reporter cell assay; activation; series mostly up to 46.1 µM
Among all 1,100 compounds or so, about 860 (78%) were called active. Inconclusive results (about 19%) are left out. Calls follow the shape of the dose curve; as a rule, active = well fitted activation curve with a large enough effect; inconclusive = small, poorly fitted or top-dose-only effect; inactive = flat fitted curve, though single readings scatter. So high a share suggests a set chosen from earlier hits. The list shows a part of the results.
Classes used: active, inactive

• Cc1noc(C(=O)Nc2cc(Cl)ccc2O)c1Cl = active
• FC(F)(F)c1cc(-c2cccs2)nc(NCc2ccco2)n1 = active
• c1ccc2c(-c3nc4ncccc4o3)cccc2c1 = active
• CCn1c(=O)c([N+](=O)[O-])c(NCc2ccco2)c2ccccc21 = active
• O=C(Nc1ncc2c(n1)CC(c1ccco1)CC2=O)c1ccc(Cl)cc1 (configuration not stated) = active
• Oc1ccc(CNc2ccccc2O)cc1 = active
• O=C(NC1CCCCC1)N(c1ccccc1)c1nnc(-c2cccc([N+](=O)[O-])c2)s1 = active
• Cc1noc(C)c1COc1ccccc1C(=O)NNC(=O)c1ccccc1F = active
• Oc1ccc(NCc2cccc(OCc3ccc(F)cc3)c2)cc1 = inactive
• O=C(Nc1nc2c(Cl)cccc2s1)c1ccc([N+](=O)[O-])o1 = active
• CCOC(=O)CCn1c(=O)c2cccn2c2cccnc21 = active
• O=C1S/C(=C\C=C\c2ccco2)C(=O)N1c1ccccc1 = active

Attribution: PubChem BioAssay AID651593
